Field: Ki^μ /Ki^δ (δ-selectivity). Provide a value for each of the compounds that follow.
- ASSAY_SYSTEM: δ opioid receptor (Rattus norvegicus, UniProt P33533)
- Construct: from tissue; host or cells: rat brain (without cerebellum) membranes, Sprague-Dawley
- Sequence (P33533 whole entry): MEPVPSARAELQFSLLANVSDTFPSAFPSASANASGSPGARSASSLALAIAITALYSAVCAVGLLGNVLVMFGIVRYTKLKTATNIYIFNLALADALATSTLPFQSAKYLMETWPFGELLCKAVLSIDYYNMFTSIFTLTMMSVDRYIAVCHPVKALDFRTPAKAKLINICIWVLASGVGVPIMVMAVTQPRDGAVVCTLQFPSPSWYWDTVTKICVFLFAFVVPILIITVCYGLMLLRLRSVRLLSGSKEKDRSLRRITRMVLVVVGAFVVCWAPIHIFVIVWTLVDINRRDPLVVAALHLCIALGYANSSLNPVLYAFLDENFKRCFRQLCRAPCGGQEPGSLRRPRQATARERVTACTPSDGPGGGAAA
- ASSAY_METHOD_TEXT: δ opioid receptor binding assay, displacement of δ-selective radioligand from rat brain membranes
- RECORDED_CONDITIONS: ratio of μ and δ binding constants
Peptide text beside a SMILES is read from it.
One number for each entry.

# batch: return Ki^μ /Ki^δ (δ-selectivity) for each of the 5 compounds below
1. NC(=O)[C@H](Cc1ccccc1)NC(=O)[C@H](Cc1ccccc1)NC(=O)[C@@H]1Cc2ccccc2CN1C(=O)[C@@H](N)Cc1ccc(O)cc1 [H--Tyr--Tic--Phe--Phe--NH2] (HELM PEPTIDE1{Y.[Tic].F.F.[am]}$$$$V2.0)
2. NC(=O)[C@H](Cc1ccccc1)NC(=O)[C@@H]1Cc2ccccc2CN1C(=O)[C@@H](N)Cc1ccc(O)cc1 [H--Tyr--Tic--Phe--NH2] (HELM PEPTIDE1{Y.[Tic].F.[am]}$$$$V2.0)
3. NC(=O)[C@H](Cc1ccccc1)NC(=O)[C@H](Cc1c[nH]c2ccccc12)NC(=O)[C@@H]1Cc2ccccc2CN1C(=O)[C@@H](N)Cc1ccc(O)cc1 [H--Tyr--Tic--Trp--Phe--NH2] (HELM PEPTIDE1{Y.[Tic].W.F.[am]}$$$$V2.0)
4. NC(=O)[C@H](Cc1c[nH]c2ccccc12)NC(=O)[C@H](Cc1ccccc1)NC(=O)[C@@H]1Cc2ccccc2CN1C(=O)[C@@H](N)Cc1ccc(O)cc1 [H--Tyr--Tic--Phe--Trp--NH2] (HELM PEPTIDE1{Y.[Tic].F.W.[am]}$$$$V2.0)
5. N[C@@H](Cc1ccc(O)cc1)C(=O)N1Cc2ccccc2C[C@H]1C(=O)N[C@@H](Cc1ccccc1)C(=O)O [H--Tyr--Tic--Phe--OH] (HELM PEPTIDE1{Y.[Tic].F}$$$$V2.0)

Result:
[26.3, 52.0, 709, 258, 141]

====

Let's go through some recorded Ki values for δ opioid receptor (Rattus norvegicus) together.
Peptide text beside a SMILES is read from it.
Give bare numbers, in nM.

Worked examples, 3 molecules total:
Request: Fill in: Ki on δ opioid receptor (Rattus norvegicus), entry NC(=O)[C@H](Cc1ccccc1)NC(=O)[C@H](Cc1c[nH]c2ccccc12)NC(=O)[C@@H]1Cc2ccccc2CN1C(=O)[C@@H](N)Cc1ccc(O)cc1 [H--Tyr--Tic--Trp--Phe--NH2] (HELM PEPTIDE1{Y.[Tic].W.F.[am]}$$$$V2.0)
Result: 0.248

Request: Report Ki from δ opioid receptor (Rattus norvegicus) testing of N[C@@H](Cc1ccc(O)cc1)C(=O)N1Cc2ccccc2C[C@H]1C(=O)N[C@@H](Cc1ccccc1)C(=O)N[C@@H](Cc1ccc([N+](=O)[O-])cc1)C(=O)O [H--Tyr--Tic--Phe--Phe(p-NO2)--OH] (HELM PEPTIDE1{Y.[Tic].F.[O=C(O)[C@H](Cc1ccc([N+](=O)[O-])cc1)N[*:1]]}$$$$V2.0)
Result: 0.703

Request: Quote δ opioid receptor (Rattus norvegicus) Ki for entry Oc1ccc2c3c1O[C@H]1c4[nH]c5ccccc5c4C[C@@]4(O)[C@@H](C2)N(CC2CC2)CC[C@]314 [Naltrindole, naltrindole, reference compound] .
Result: 0.687

API: the following record is the query input.
Request: Under δ opioid receptor (Rattus norvegicus): report Ki of N[C@@H](Cc1ccc(O)cc1)C(=O)N1Cc2ccccc2C[C@H]1C(=O)N[C@@H](Cc1c[nH]c2ccccc12)C(=O)N[C@@H](Cc1ccccc1)C(=O)O [H--Tyr--Tic--Trp--Phe--OH] (HELM PEPTIDE1{Y.[Tic].W.F}$$$$V2.0) .
Result: 0.301

====

- ASSAY_SYSTEM: δ opioid receptor (Rattus norvegicus, UniProt P33533)
Peptide text beside a SMILES is read from it.
Field: Ki. Provide a value for each of the compounds that follow.
Numbers only, in nM.

Request: Report the value of Ki obtained on δ opioid receptor (Rattus norvegicus, UniProt P33533) for NC(=O)[C@H](Cc1c[nH]c2ccccc12)NC(=O)[C@H](Cc1ccccc1)NC(=O)[C@@H]1Cc2ccccc2CN1C(=O)[C@@H](N)Cc1ccc(O)cc1 [H--Tyr--Tic--Phe--Trp--NH2] (HELM PEPTIDE1{Y.[Tic].F.W.[am]}$$$$V2.0) .
Result: 1.21

Request: Please indicate recorded Ki of NC(=O)[C@H](Cc1ccccc1)NC(=O)[C@@H]1Cc2ccccc2CN1C(=O)[C@@H](N)Cc1ccc(O)cc1 [H--Tyr--Tic--Phe--NH2] (HELM PEPTIDE1{Y.[Tic].F.[am]}$$$$V2.0) measured with δ opioid receptor (Rattus norvegicus, UniProt P33533).
Result: 12

Continuing:
Request: Write down the reported Ki (system: δ opioid receptor (Rattus norvegicus, UniProt P33533)) of N[C@@H](Cc1ccc(O)cc1)C(=O)N1Cc2ccccc2C[C@H]1C(=O)N[C@@H](Cc1c[nH]c2ccccc12)C(=O)N[C@@H](Cc1ccc([N+](=O)[O-])cc1)C(=O)O [H--Tyr--Tic--Trp--Phe(p-NO2)--OH] (HELM PEPTIDE1{Y.[Tic].W.[O=C(O)[C@H](Cc1ccc([N+](=O)[O-])cc1)N[*:1]]}$$$$V2.0)
Result: 0.33

====

- ASSAY_SYSTEM: δ opioid receptor (Rattus norvegicus, UniProt P33533)
- Construct: from tissue; host or cells: rat brain (without cerebellum) membranes, Sprague-Dawley
- ASSAY_METHOD_TEXT: δ opioid receptor binding assay, displacement of δ-selective radioligand from rat brain membranes
- RECORDED_CONDITIONS: ratio of μ and δ binding constants
Peptide text beside a SMILES is read from it.
Exercise: for every item that follows, state its recorded Ki^μ /Ki^δ (δ-selectivity).
Give bare numbers.

Here's what some known entries look like.
Request: Give the value of Ki^μ /Ki^δ (δ-selectivity) reported for the following: N[C@@H](Cc1ccc(O)cc1)C(=O)N1Cc2ccccc2C[C@H]1C(=O)N[C@@H](Cc1ccccc1)C(=O)N[C@@H](Cc1ccc([N+](=O)[O-])cc1)C(=O)O [H--Tyr--Tic--Phe--Phe(p-NO2)--OH] (HELM PEPTIDE1{Y.[Tic].F.[O=C(O)[C@H](Cc1ccc([N+](=O)[O-])cc1)N[*:1]]}$$$$V2.0)
Result: 4110

Request: Give Ki^μ /Ki^δ (δ-selectivity) for N[C@@H](Cc1ccc(O)cc1)C(=O)N1Cc2ccccc2C[C@H]1C(=O)N[C@@H](Cc1c[nH]c2ccccc12)C(=O)N[C@@H](Cc1ccccc1)C(=O)O [H--Tyr--Tic--Trp--Phe--OH] (HELM PEPTIDE1{Y.[Tic].W.F}$$$$V2.0)
Result: 5950

Now consider a different molecule.
Request: Query Ki^μ /Ki^δ (δ-selectivity) for N[C@@H](Cc1ccc(O)cc1)C(=O)N1Cc2ccccc2C[C@H]1C(=O)N[C@@H](Cc1c[nH]c2ccccc12)C(=O)N[C@@H](Cc1ccc([N+](=O)[O-])cc1)C(=O)O [H--Tyr--Tic--Trp--Phe(p-NO2)--OH] (HELM PEPTIDE1{Y.[Tic].W.[O=C(O)[C@H](Cc1ccc([N+](=O)[O-])cc1)N[*:1]]}$$$$V2.0)
Result: 4610

====

- ASSAY_SYSTEM: μ opioid receptor (Rattus norvegicus)
- Sequence (P33535 whole entry): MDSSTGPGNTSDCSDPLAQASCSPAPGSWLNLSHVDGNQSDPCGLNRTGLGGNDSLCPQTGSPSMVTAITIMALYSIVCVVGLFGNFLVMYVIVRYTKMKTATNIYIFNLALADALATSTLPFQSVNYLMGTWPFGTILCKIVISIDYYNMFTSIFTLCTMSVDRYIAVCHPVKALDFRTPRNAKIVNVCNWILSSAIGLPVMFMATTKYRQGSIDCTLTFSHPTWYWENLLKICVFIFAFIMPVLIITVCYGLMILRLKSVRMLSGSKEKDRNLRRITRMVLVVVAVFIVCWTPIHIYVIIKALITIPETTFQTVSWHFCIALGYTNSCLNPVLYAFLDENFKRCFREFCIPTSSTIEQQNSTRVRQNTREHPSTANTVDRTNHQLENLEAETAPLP
pKi: −log10 of the molar value. Peptide text beside a SMILES is read from it.
Label Satisfied when pKi >= 6; otherwise Not satisfied.

Would you please look over these solved cases?
Request: Check if pKi >= 6 (inclusive). Item: N[C@@H](Cc1ccc(O)cc1)C(=O)N1Cc2ccccc2C[C@H]1C(=O)N[C@@H](Cc1ccccc1)C(=O)N[C@@H](Cc1ccc([N+](=O)[O-])cc1)C(=O)O [H--Tyr--Tic--Phe--Phe(p-NO2)--OH] (HELM PEPTIDE1{Y.[Tic].F.[O=C(O)[C@H](Cc1ccc([N+](=O)[O-])cc1)N[*:1]]}$$$$V2.0)
Result: Not satisfied

Request: Check this molecule for pKi at or above 6: NC(=O)[C@H](Cc1ccccc1)NC(=O)[C@@H]1Cc2ccccc2CN1C(=O)[C@@H](N)Cc1ccc(O)cc1 [H--Tyr--Tic--Phe--NH2] (HELM PEPTIDE1{Y.[Tic].F.[am]}$$$$V2.0)
Result: Satisfied

Request: Does the reported pKi for NC(=O)[C@H](Cc1ccccc1)NC(=O)[C@H](Cc1c[nH]c2ccccc12)NC(=O)[C@@H]1Cc2ccccc2CN1C(=O)[C@@H](N)Cc1ccc(O)cc1 [H--Tyr--Tic--Trp--Phe--NH2] (HELM PEPTIDE1{Y.[Tic].W.F.[am]}$$$$V2.0) fall at or above the 6 mark?
Result: Satisfied

New cases:
Request: Does pKi meet or surpass 6 for N[C@@H](Cc1ccc(O)cc1)C(=O)N1Cc2ccccc2C[C@H]1C(=O)N[C@@H](Cc1c[nH]c2ccccc12)C(=O)N[C@@H](Cc1ccccc1)C(=O)O [H--Tyr--Tic--Trp--Phe--OH] (HELM PEPTIDE1{Y.[Tic].W.F}$$$$V2.0) ?
Result: Not satisfied

Request: Is pKi for NC(=O)[C@H](Cc1c[nH]c2ccccc12)NC(=O)[C@H](Cc1ccccc1)NC(=O)[C@@H]1Cc2ccccc2CN1C(=O)[C@@H](N)Cc1ccc(O)cc1 [H--Tyr--Tic--Phe--Trp--NH2] (HELM PEPTIDE1{Y.[Tic].F.W.[am]}$$$$V2.0) at or above 6?
Result: Satisfied
